Tested On: HCV polymerase (Hepatitis C virus genotype 1b, UniProt P26663)
Construct: 2.5 pmoles (0.15 μg) HCV polymerase protein in a final volume of 75 μL
Sequence (P26663 2420-3010): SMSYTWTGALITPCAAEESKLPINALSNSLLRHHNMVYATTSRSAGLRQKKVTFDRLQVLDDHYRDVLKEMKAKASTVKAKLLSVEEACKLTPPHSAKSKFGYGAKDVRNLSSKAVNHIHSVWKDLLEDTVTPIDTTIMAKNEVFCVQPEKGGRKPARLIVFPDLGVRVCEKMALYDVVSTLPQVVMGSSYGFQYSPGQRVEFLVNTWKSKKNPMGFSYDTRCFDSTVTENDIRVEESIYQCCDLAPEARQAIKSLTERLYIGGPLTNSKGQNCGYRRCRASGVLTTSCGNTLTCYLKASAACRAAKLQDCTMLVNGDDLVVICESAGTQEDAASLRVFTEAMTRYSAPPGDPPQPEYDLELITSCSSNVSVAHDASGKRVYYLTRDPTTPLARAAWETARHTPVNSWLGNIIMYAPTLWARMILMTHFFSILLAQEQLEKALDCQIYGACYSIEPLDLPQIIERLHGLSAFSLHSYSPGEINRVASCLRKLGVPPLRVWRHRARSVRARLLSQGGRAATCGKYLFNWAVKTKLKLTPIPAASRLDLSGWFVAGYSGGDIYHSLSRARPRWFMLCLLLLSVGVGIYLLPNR
Assay Info: HCV polymerase primer/template-directed transcription assay (32P-GTP incorporation, filter binding)
Format: biochemical
Test Parameters: recombinant HCV polymerase; 30 minutes at 30° C.; concentration giving 50% inhibition of polymerase-directed transcription; read-out: IC50
Experimental: The compounds described herein were tested for activity with HCV polymerase. […] The filters were counted in a Packard Tri-Lux Microbeta scintillation counter (Packard Bioscience, Meriden, Conn.). […]
IC50 under 0.1 µM gets Y, anything at or over 0.1 µM gets N.

Solved cases below.
Molecule	Assigned Category
CC(C)(CNC(=O)c1cnc(O)cn1)c1cccc(CCC2(C3CCCC3)CC(=O)CC(=O)O2)c1 (stereo not shown) [A(74)]	N
CCc1ccc(O)c(CCC2(C3CCCC3)CC(O)=C(Cc3nc4nc(C)cc(C)n4n3)C(=O)O2)c1 (single isomer, unassigned; enantiomer 2) [A(168)]	Y
COc1ccc(CCC2(C3CCCC3)CC(O)=C(Sc3nc4cc(F)ccc4[nH]3)C(=O)O2)cc1Cl (stereo not shown) [C(52)]	N
Cc1cnc2nc(CC3=C(O)CC(CCc4ccc(C5(C#N)CCC5)c(F)c4)(C4CCCC4)OC3=O)nn2c1 (stereo not shown) [A(239)]	Y
COc1ccc(CCC2(C3CCCC3)CC(O)=C(C(=O)Cc3cc(C)no3)C(=O)O2)c(OC)c1 (stereo not shown) [B(86)]	N

Query string: Identify whether the molecule Cc1cnc2nc(CC3=C(O)CC(CCc4ccc(C(C)C#N)c(F)c4)(C4CCCC4)OC3=O)nn2c1 (stereo not shown) [A(240)] records IC50 below 0.1 µM.
Result string: Y

Query string: Identify whether the molecule N#CC1(c2ccc(CCC3(C4CCCC4)CC(=O)CC(=O)O3)cc2F)CCC1 (stereo not shown) [A(237)] records IC50 below 0.1 µM.
Result string: N

Data provenance is patent US7473790B2.
